# Tested on: MCF7 breast
# assay-explanation: NCI tumour cell line growth inhibition, 48 h
Entry flag: y if TGI reaches 5 µM; n if it does not.

Given CN(CCCCCl)P(=O)(OCc1ccc([N+](=O)[O-])o1)OCC1OC(n2cc([N+](=O)[O-])c(=O)[nH]c2=O)CC1O (stereo not given) , state whether its TGI is at least 5 µM.
y

Test whether the compound `CCSc1nc(N/N=C/c2cccs2)c2cnn(CO)c2n1` records TGI of 5 µM or higher.
y

# check: TGI of O=C1CC(c2ccccc2)n2c(nc3ccccc32)N1 (stereo not given) is greater than or equal to 5 µM
y

Hello, I need to know if `O=C1c2cccnc2-c2nccc3c2c1nc1ccccc13` has measured TGI not below 5 µM. Thanks!
n

In plain terms: is recorded TGI at least 5 µM for `CCCCCCCCN=C(NCCCCCCCC)SCc1cccc2ccccc12` ?
n

Dear colleague, could you confirm whether `COc1cc(/C=C/C(=N\NC(N)=S)c2sc(NNC(C)=O)nc2C)ccc1O` has TGI at or above 5 µM?
y

Form field: TGI at least 5 µM? Entry: `Cc1cc(C)c2c(n1)S(=O)(=O)N(CCCN1CCN(c3cccc(Cl)c3)CC1)/C(=C(\O)c1ccc(Br)cc1)C2=O`
y

Textbook exercise: given the entry CCOCCOCCOCCOCCOCCOCCOCCOCCOCCO (tested in a mixture with another compound) , state whether its TGI is greater than or equal to 5 µM.
n

Please tell me: is the compound `COc1cc(-c2ccc[nH]2)[nH]c1/C=C1\N=C(C)C(CC(=O)OCC(C)(C)C)=C1C` at or over 5 µM in terms of TGI?
n

TGI >= 5 µM for `C=CCSC(C)=O` ?
y

---

# Test system: LOX IMVI melanoma
# assay-explanation: NCI tumour cell line growth inhibition, 48 h; in the data active = GI50 below about 0.43 µM; inactive = the rest
Please state which outcome applies, choosing from active, inactive

Kindly provide the recorded test outcome for the following compound: `COc1ccc(-c2c(-c3ccc(C#N)c(F)c3)nc(N3CCC(N)CC3)n(C)c2=O)cc1F`
inactive

Please let me know the test result on file for COc1cc(C2NC(=O)C(C#N)=C(Nc3cccc(C)c3)S2)ccc1O (configuration not stated) .
inactive

Field: outcome | Entry: CC1=C(C(=O)Nc2ccc(Cl)c(Cl)c2)C(c2cccc(Cl)c2)NC(=S)N1 (configuration not stated)
inactive

What was the test verdict on `CC(=O)[CH-]C(=O)c1ccccc1.CC(=O)[CH-]C(=O)c1ccccc1.CC(=O)[CH-]C(=O)c1ccccc1.[Ga+3]` ?
inactive

Entry `O=C1Cc2cc(CCN3CCNCC3)c(Cl)cc2N1` : call = ?
inactive

Fill in: this test's call for `COc1cc(C(=O)n2nc(N)c3c(C)cc(C)nc32)cc(OC)c1OC` is ___
inactive

I would be grateful if you could indicate the recorded call for `COc1ccc2c(c1)C(=O)c1c-2n(CCCN(C)C)c(=O)c2cc([N+](=O)[O-])ccc12` .
active

// return assay outcome for `Cc1c(C(N)=O)sc2nc(C)n(/N=c3\scc(-c4ccccc4)n3Cc3ccccc3)c(=O)c12`
inactive

Test call for this compound, please: CN(CCCCCl)P(=O)(OCc1ccc([N+](=O)[O-])o1)OCC1OC(n2cc([N+](=O)[O-])c(=O)[nH]c2=O)CC1O (configuration not stated)
inactive

Recorded test call requested for COc1ccc2nc3ccccc3c(NCCNCC(C)O)c2c1 (configuration not stated)
active

Lab log entry: `Oc1[nH]c2ccccc2c1C=Nc1ccc(-n2cncn2)cc1` — outcome as called in the assay?
inactive

Can you look up the reported call for CCOCCOCCOCCOCCOCCOCCOCCOCCOCCO (tested in a mixture with another compound) for me?
inactive

---

Hi there, I'd appreciate the recorded TGI for every entry that follows.
# Tested on: RPMI-8226 leukemia
# assay-explanation: NCI tumour cell line growth inhibition, 48 h
Numbers only here, please. The scale is µM.

For the molecule `Cc1ccc(-c2nc3sc(C)cn3c2/C=C2\C(=O)Nc3ccc(Cl)cc32)cc1` , what TGI is on record?
58.6

Name the recorded TGI for `CCOC(=O)/C=C1/SC(=Nc2ccc(C#N)cc2)N(Cc2ccco2)C1=O` .
7.46

---

# Tested on: EKVX NSCLC
# assay-explanation: NCI tumour cell line growth inhibition, 48 h
Please go through the items and note down their TGI.

I am curious: what TGI value has been reported for `Cc1ccc(S(=O)(=O)N(CCNC(=O)c2cccc(O)c2O)c2cc3c4c(c2)Oc2cccc5c2C4(C)c2c(cccc2O3)O5)cc1` ?
> 100 µM

Given CC1=C(C(=O)Nc2ccc(Cl)c(Cl)c2)C(c2cccc(Cl)c2)NC(=S)N1 (configuration not stated) , state its recorded TGI.
28.8 µM

What value of measured TGI is listed for `COc1ccc(-c2c(-c3ccc(C#N)c(F)c3)nc(N3CCC(N)CC3)n(C)c2=O)cc1F` ?
52.8 µM

Bench note: what TGI did `CC1=C[C@@H]2c3c(c(O)c(O)c4oc5cc(O)cc(O)c5c(=O)c34)[C@@H](c3cc(O)c(O)c4oc5cc(O)cc(O)c5c(=O)c34)[C@@H]2C(C)(C)C1` show?
15.6 µM

# TGI lookup, item `C=C(C)C(=O)Nc1ccc(-c2c(-c3ccc(Oc4nccc(C)n4)c(F)c3)c3c(N)ncnc3n2C)cc1`
17.1 µM

Recorded TGI for `CN(C)S(=O)(=O)c1nc(Cl)c2[nH]cnc2n1` , please?
> 100 µM

Suppose we examine the molecule CCN1C(=O)N(CC)C2C1N=C(SC)N2/N=C/C=C/c1ccccc1OC (configuration not stated) ; what TGI value has been reported?
> 56.6 µM

Can you look up the measured TGI of C=C(C)CCC1C=[N+]([O-])OC(C)(C)C1(C)C (configuration not stated) for me?
> 100 µM

Fill in the blank: the reported TGI of `CN(C)CCC[N+]1=Nc2cccc3cccc(c23)N1` is ____.
> 100 µM

Value lookup for TGI; key = `O=C(C(=CN1CCN(C(=O)c2ccco2)C1=S)C(=O)c1ccccc1)c1ccccc1`
21.4 µM

Record request: TGI value, item `CC(=O)[C@@]1(c2ccccc2)CC2(CCN(C)CC2)O[C@H]1C`
> 100 µM

Look up TGI: `CCNC(=S)NNC(=O)c1ccccc1Nc1ccccc1C(=O)NNC(=S)NCC`
> 100 µM

Query: TGI; subject: `CC#COS(=O)(=O)c1ccc(C)cc1`
> 100 µM

Reported TGI for `Cc1cc(C)c2c(n1)S(=O)(=O)N(CCCN1CCN(c3cccc(Cl)c3)CC1)/C(=C(\O)c1ccc(Br)cc1)C2=O` : what is it?
57 µM

So what does the record say about TGI for `COc1ccc(Nc2nc(N)c(C(=O)c3ccc(Cl)cc3)s2)cc1` ?
> 100 µM

Name the recorded TGI for `COc1ccc2c(c1)-c1c(c3cc(OC)ccc3n(CCN(C)C)c1=O)C2=O` .
10.2 µM

So what does the record say about TGI for `CSc1ncc2c(n1)-c1ccccc1OC2` ?
> 100 µM

Look at this molecule and give its reported TGI. `Cc1cc(Br)ccc1N=Nc1c(C)nn(-c2ccccc2)c1-c1ccccc1`
> 100 µM

Given the entry `CC1=C2C=CC(=O)C[C@@]2(C)CCC1` , report its measured TGI.
> 100 µM

Can you look up the measured TGI of `O=C1CN(c2cccc(C(F)(F)F)c2)C(=O)CN1CCN1CC(=O)N(c2cccc(C(F)(F)F)c2)CC1=O` for me?
> 100 µM

I am curious: what TGI value has been reported for `FC(F)(F)c1cccc(-c2[nH]ncc2-c2nnnn2-c2ccccc2)c1` ?
29.7 µM

Consider the molecule CN(C)CC1CCC/C(=C\c2ccc(OC(=O)/C=C/c3ccc(Cl)cc3)cc2)C1=O (configuration not stated) and give its measured TGI.
15.2 µM

I'd like to know its TGI. The molecule in question is `Cn1c(I)c(C#C[Si](C)(C)C)c(=O)[nH]c1=O`
24.8 µM

Which TGI value is on record for `COc1ccc2[nH]c3c(c2c1)CC(=O)N1CCC[C@H](C1)CC31OCCCO1` ?
> 100 µM

Field request: TGI | item: `N#COc1ccc(Oc2ccc(OC#N)cc2)cc1`
> 100 µM

Any idea what its TGI is? The molecule is `COC(=O)C(CCC1(C)OCCO1)=[N+]=[N-]`
> 100 µM

# query: TGI of entry COc1ccc2nc3ccccc3c(NCCNCC(C)O)c2c1 (configuration not stated)
7.82 µM

Tell me the measured TGI of `COC(=O)c1cc(-c2ccc(S(C)(=O)=O)cc2)[nH]c1N/N=C/c1c(Cl)cccc1Cl` , please.
> 76.1 µM

Item under review: `O=C(N/C(=C\c1ccc(/C=C(\NC(=O)c2ccccc2)c2nc3c(O)nc(S)nc3[nH]2)cc1)c1nc2c(O)nc(S)nc2[nH]1)c1ccccc1` . Reported TGI?
> 100 µM

What value of TGI has been recorded for this entry: CC1CN(CCO)CCN1c1ccccc1 (configuration not stated)
> 100 µM

Fill blank: measured TGI of the molecule `COc1cc2c[n+](C)c3c4cc(OC)c(OCc5ccccc5)cc4c(OCc4ccccc4)cc3c2cc1OC` is ____.
> 100 µM

Returns the measured TGI for the input molecule. Input: O=C(NC1=C(Cl)C(=O)c2ccccc2C1=O)C(=O)C(C(=O)c1ccc2ccccc2c1)C1OC(=O)c2ccccc21 (configuration not stated)
24.7 µM

Which TGI is reported for this molecule? `O=C(NCCNCCO)c1ccc(Nc2nc3ccccc3c3occc23)cc1`
32 µM

Quick one: TGI of `O=C1C=CC(=O)c2c1nc(CBr)[nH]c2=O` ?
> 100 µM

Fill in: TGI of `CCCCCCCCCCCCCS(=O)(=O)NCC(N)=O` is ___
> 100 µM

So what does the record say about TGI for `Brc1ccc(-c2cc3c(cc2C2SCCS2)OCO3)cc1` ?
75.1 µM

# TGI lookup, item `C/C(=N\NC(N)=S)c1nc2ncccc2[nH]1`
> 100 µM

I am curious: what TGI value has been reported for N#CC1=C(N)N(/N=C/c2ccco2)C(c2ccco2)C1(C#N)C#N (configuration not stated) ?
47.3 µM

What does the data say about its TGI? Entry: `Cc1nn2c(c1C#N)NNc1c-2sc(=N)nnc1=O`
> 100 µM

Need TGI of `O=C1c2cccnc2-c2nccc3c2c1nc1ccccc13` , thanks.
3.21 µM

If you can, please state the reported TGI value of `COc1ccc(-c2oc3cc(O)c(OC)c(O)c3c(=O)c2O)cc1` .
> 100 µM

What does the record list as TGI for `O=S(O)c1cc(Cl)c(O)c(Cl)c1` ?
> 100 µM

Source: PubChem BioAssay (NCI)
